Molecular target: Aurora kinase A (Homo sapiens)
Details: Compound concentration 20.0 uM, Protein concentration 2.0 uM, Result type QC Liability
Description: Thermal Shift Assay. Domain: start/stop: E122-S403
QUANTITY KIND: ΔTm (°C)
Express the result in °C but write the number alone.

[[record]]
smiles_text = "CN[C@@H](C)C(=O)N[C@H]1CN(C(=O)CC(C)C)CC[C@H]2CC[C@@H](C(=O)NC(c3ccccc3)c3ccccc3)N2C1=O"
value = 0.17

[[record]]
smiles_text = "CCC(=O)N[C@@H]1CC[C@H](C(=O)N(C)c2ccc(-c3nc4ccccc4o3)cc2)C1"
value = 0.03


Given the compound Cc1nsc(Nc2cnc(C(F)(F)F)cn2)c1C(=O)Nc1ccc(O[C@H]2CCCN(CC(F)(F)F)C2)nc1 and test system Aurora kinase A (Homo sapiens), the measured ΔTm is 2.24

Given the compound C[C@@H]1C[C@H](C)CN(c2ncc(Cl)c(Nc3ccc4c(c3)cc(OC(C)(C)C(=O)O)c(=O)n4C)n2)C1 and test system Aurora kinase A (Homo sapiens), the measured ΔTm is 0.18

Given the compound Cc1cc2c(-c3ccco3)cnc(N[C@H]3CCN(C)C[C@@H]3C(=O)NC3CCCCC3)c2[nH]c1=O and test system Aurora kinase A (Homo sapiens), the measured ΔTm is -1.37

Given the compound Cn1nc(-c2ccc(C(N)=O)cc2)c2ccccc2c1=O and test system Aurora kinase A (Homo sapiens), the measured ΔTm is 0.43

Given the compound Cc1ncc(C(=O)Nc2cc(C(C)(C)C)on2)cc1-n1cc(-c2cnn(C)c2C)nn1 and test system Aurora kinase A (Homo sapiens), the measured ΔTm is -0.09

Given the compound CN1CCN(C(=O)c2ccc3cc2OCCOCCNc2ccn4ncc-3c4n2)CC1 and test system Aurora kinase A (Homo sapiens), the measured ΔTm is 3.85

Given the compound N#CN1CC[C@H](C(=O)Nc2nc3c(s2)CN(C(=O)CN=[N+]=[N-])CC3)C1 and test system Aurora kinase A (Homo sapiens), the measured ΔTm is -0.99

* * *

Target: Tyrosine-protein kinase ABL1 (Homo sapiens)
Settings: Compound concentration 20.0 uM, Protein concentration 2.0 uM, Result type QC Liability
Description: Thermal Shift Assay. Domain: start/stop: S229-K512
QUANTITY KIND: ΔTm (°C)
Express the result in °C but write the number alone.

Worked examples follow.
[[record]]
smiles_text = "CSc1ccc(C(=O)/C=C/c2cc(C)c(OC(C)(C)C(=O)O)c(C)c2)cc1"
system = "Tyrosine-protein kinase ABL1 (Homo sapiens)"
value = 1.1

[[record]]
smiles_text = "CCOC(=O)CS(=O)(=O)c1ccc([C@@H](CO)NC(=O)c2cc3c(Cl)c(Cl)c(C)cc3n2C)cc1"
system = "Tyrosine-protein kinase ABL1 (Homo sapiens)"
value = -1.39

[[record]]
smiles_text = "Clc1ccc(-c2nc3sccn3c2/C=N/OCc2ccc(Cl)c(Cl)c2)cc1"
system = "Tyrosine-protein kinase ABL1 (Homo sapiens)"
value = -0.76

[[record]]
smiles_text = "COc1cc(Cl)c(C(=O)N[C@@H](CN[C@H]2CC[C@@H](N)CC2)Cc2ccc(C#N)cc2)cc1-c1ccc(CN[C@H](C)c2ccc(C)cc2)o1"
system = "Tyrosine-protein kinase ABL1 (Homo sapiens)"
value = 0.33

[[record]]
smiles_text = "COc1ccc(C(F)(F)F)cc1NC(=O)Nc1ccc(Oc2cc(C)nc(N)n2)c2ccccc12"
system = "Tyrosine-protein kinase ABL1 (Homo sapiens)"
value = 5.29

[[record]]
smiles_text = "O=C(Nc1ccc(C(O)(C(F)(F)F)C(F)(F)F)cc1)c1ccc(C(F)(F)F)cc1"
system = "Tyrosine-protein kinase ABL1 (Homo sapiens)"
value = 0.76

[[record]]
smiles_text = "Nc1nc(-c2nn(Cc3ccccc3F)c3ncccc23)ncc1C1CC1"
system = "Tyrosine-protein kinase ABL1 (Homo sapiens)"
value = 0.84

[[record]]
smiles_text = "CNC(=O)c1ccc2c(c1)ncn2-c1ccc(CC(=O)OC(C)(C)C)cc1"
system = "Tyrosine-protein kinase ABL1 (Homo sapiens)"
value = 4.4


Next compound, ΔTm to be filled in.
Reported ΔTm of CN(C)[C@H]1CCc2nc(NC(=O)c3cccc(Cn4cc(-c5ccc(C#N)cc5)cn4)c3)sc2C1 : 0.14

* * *

Target: Aurora kinase A (Homo sapiens) (UniProt O14965)
Sequence (O14965 whole entry): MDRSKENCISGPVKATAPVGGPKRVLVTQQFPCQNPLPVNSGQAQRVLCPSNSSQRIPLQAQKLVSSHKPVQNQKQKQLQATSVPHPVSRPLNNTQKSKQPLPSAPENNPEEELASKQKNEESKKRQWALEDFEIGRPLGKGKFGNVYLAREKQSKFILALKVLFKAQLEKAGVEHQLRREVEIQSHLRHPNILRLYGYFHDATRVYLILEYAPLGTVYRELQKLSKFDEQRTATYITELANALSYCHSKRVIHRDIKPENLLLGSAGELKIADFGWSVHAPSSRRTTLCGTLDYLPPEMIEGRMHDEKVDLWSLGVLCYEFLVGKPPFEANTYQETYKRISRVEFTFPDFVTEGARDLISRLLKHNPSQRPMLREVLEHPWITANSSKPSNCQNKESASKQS
Details: Compound concentration 20.0 uM, Protein concentration 2.0 uM, Result type QC Liability
// reported ΔTm per item

[[record]]
smiles_text = "Cn1ncc(NC(=O)c2nc(-c3c(F)cccc3F)sc2N)c1N1CC[C@@H](N)[C@H](F)CC1"
value = "0.87 °C"

[[record]]
smiles_text = "COc1cc(C(=O)NCCOCCOCCOCC(=O)N[C@H](C(=O)N2C[C@@H](O)C[C@H]2C(=O)NCc2ccc(-c3scnc3C)cc2)C(C)(C)C)ccc1Nc1ncc(C(F)(F)F)c(Oc2cccc3c2C(=O)CC3)n1"
value = "0.94 °C"


Next compound, ΔTm to be filled in.
Reported ΔTm of CCN(C(=O)c1cc(F)ccc1Oc1cncnc1N1CC2(CCN(C[C@H]3CC[C@H](NS(=O)(=O)CC)CC3)CC2)C1)C(C)C : -1.01 °C

* * *

// reported ΔTm per item
Molecular target: Cyclin-dependent kinase 2 (Homo sapiens) (UniProt P24941)
Conditions: Compound concentration 20.0 uM, Protein concentration 2.0 uM, Result type QC Liability
Description: Thermal Shift Assay. Domain: start/stop: M1-L298
Express the result in °C but write the number alone.

[[record]]
compound = "C=CC[C@@H]1/C=C(\\C)C[C@H](C)C[C@H](OC)[C@H]2O[C@@](O)(C(=O)C(=O)N3CCCC[C@H]3C(=O)O[C@H](/C(C)=C/[C@@H]3CC[C@@H](O)[C@H](OC)C3)[C@H](C)[C@@H](O)CC1=O)[C@H](C)C[C@@H]2OC"
quantity_kind = "ΔTm"
value = -0.14

[[record]]
compound = "CC(=O)c1c(C)c2cnc(Nc3ccc(N4CCN(CCOCCOCCOCCNC(=O)COc5cccc6c5C(=O)N(C5CCC(=O)NC5=O)C6=O)CC4)cn3)nc2n(C2CCCC2)c1=O (configuration not stated)"
quantity_kind = "ΔTm"
value = -0.26

[[record]]
compound = "Cc1cn([C@H](C)CC#N)c(=O)c2cc(Cn3nc(C(F)F)cc3Cl)nn12"
quantity_kind = "ΔTm"
value = -0.62

[[record]]
compound = "Cc1cc2ncnn2cc1Nc1ncc2c(n1)n(C1CCOCC1)c(=O)n2C"
quantity_kind = "ΔTm"
value = 0.84

[[record]]
compound = "CC(C)Oc1ccc(Cc2ccc(NC3=NCCN3)cc2)cc1"
quantity_kind = "ΔTm"
value = 0.19

[[record]]
compound = "Cc1ncc(C(=O)Nc2cc(C(C)(C)C)on2)cc1-n1cc(-c2cnn(C)c2C)nn1"
quantity_kind = "ΔTm"
value = 0.45


Next compound, ΔTm to be filled in.
Reported ΔTm of COc1cc(C)c(S(=O)(=O)N(C)CCC(=O)N[C@H]2CC[C@@H](N3CCC4CN(C)CC4C3)CC2)c(C)c1 (some centres not stated) : -0.04

* * *

Biological target: Mitogen-activated protein kinase 1 (Homo sapiens) (UniProt P28482)
Sequence (P28482 whole entry): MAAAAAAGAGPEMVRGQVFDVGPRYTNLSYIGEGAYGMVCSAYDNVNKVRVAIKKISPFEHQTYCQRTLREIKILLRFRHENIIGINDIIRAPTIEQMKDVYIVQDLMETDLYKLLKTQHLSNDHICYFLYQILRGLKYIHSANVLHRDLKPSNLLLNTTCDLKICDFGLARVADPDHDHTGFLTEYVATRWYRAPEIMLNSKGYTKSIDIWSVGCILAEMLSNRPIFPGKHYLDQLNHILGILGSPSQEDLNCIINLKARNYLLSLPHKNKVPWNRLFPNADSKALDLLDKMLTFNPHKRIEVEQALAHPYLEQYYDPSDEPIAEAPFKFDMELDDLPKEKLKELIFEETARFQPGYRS
Details: Compound concentration 20.0 uM, Protein concentration 2.0 uM, Result type QC Liability
Description: Thermal Shift Assay. Domain: start/stop: M1-S360
// reported ΔTm per item
Express the result in °C but write the number alone.

[[record]]
smiles_text = "Cc1nccc(COC(=O)N2C[C@@H]3[C@@H](CNC(=O)c4ccc5[nH]nnc5c4)[C@@H]3C2)n1"
quantity_kind = "ΔTm"
value = 0.26

[[record]]
smiles_text = "O=C(Nc1ccnc(NC(=O)C2CC2)c1)c1c(Cl)cccc1Cl"
quantity_kind = "ΔTm"
value = 0.23

[[record]]
smiles_text = "O=C(Nc1ccc(C(O)(C(F)(F)F)C(F)(F)F)cc1)c1ccc(C(F)(F)F)cc1"
quantity_kind = "ΔTm"
value = 0.19

[[record]]
smiles_text = "Cc1c(NC(=O)c2ccc(C(C)(C)C)cc2)cccc1-c1cn(C)c(=O)c(Nc2ccc(C(=O)N3CCOCC3)cc2)n1"
quantity_kind = "ΔTm"
value = -1.15

[[record]]
smiles_text = "CCS(=O)(=O)Nc1cccc(Oc2cncc(Nc3ccc(I)cc3F)c2C(N)=O)c1"
quantity_kind = "ΔTm"
value = -2.21

[[record]]
smiles_text = "COc1cc2ncnc(Nc3cccc(O)c3)c2cc1OC"
quantity_kind = "ΔTm"
value = 0.61

[[record]]
smiles_text = "O=C(O)c1cc(-c2ccccc2)ccc1O"
quantity_kind = "ΔTm"
value = 0.04

[[record]]
smiles_text = "COc1cc(C(N)=O)nc(-c2cccc(C#C[C@]3(O)CCN(C)C3=O)c2)c1"
quantity_kind = "ΔTm"
value = 0.3


Given the compound Nc1nc(-c2nn(Cc3ccccc3F)c3ncccc23)ncc1C1CC1 and test system Mitogen-activated protein kinase 1 (Homo sapiens) (UniProt P28482), the measured ΔTm is 0.15

Given the compound COCCc1ccc(-c2c(C)nc3c(N4CCOCC4)ccnn23)cn1 and test system Mitogen-activated protein kinase 1 (Homo sapiens) (UniProt P28482), the measured ΔTm is 0.69

Given the compound COc1cc2nc(C)nc(NC3(c4ccccc4)CC3)c2cc1OC and test system Mitogen-activated protein kinase 1 (Homo sapiens) (UniProt P28482), the measured ΔTm is 0.33

Given the compound CCc1c(-c2ccc3[nH]ncc3c2)cnc(N)c1-c1ccc(O)cc1 and test system Mitogen-activated protein kinase 1 (Homo sapiens) (UniProt P28482), the measured ΔTm is 0.44

Given the compound CCC(C)(C)CC[C@H](NC(=O)N1CCOCC1)C(=O)NC1(C#N)CCN(C)CC1 and test system Mitogen-activated protein kinase 1 (Homo sapiens) (UniProt P28482), the measured ΔTm is 0.54

Given the compound CNC(=O)c1ccc(C)c(-n2c(C)cc(OCc3ccc(F)cc3F)c(Br)c2=O)c1 and test system Mitogen-activated protein kinase 1 (Homo sapiens) (UniProt P28482), the measured ΔTm is -0.46

Given the compound CN(C)C/C=C/C(=O)Nc1ccc(C(=O)Nc2cccc(Nc3ncc(Cl)c(-c4c[nH]c5ccccc45)n3)c2)cc1 and test system Mitogen-activated protein kinase 1 (Homo sapiens) (UniProt P28482), the measured ΔTm is -1.25

Given the compound CCS(=O)(=O)Nc1cccc(Oc2cc(F)cc(Nc3ccc(I)cc3F)c2NS(=O)(=O)C2CC2)c1 and test system Mitogen-activated protein kinase 1 (Homo sapiens) (UniProt P28482), the measured ΔTm is -1.88
